- experimental system: Sphingosine 1-phosphate receptor 1 (Homo sapiens, UniProt P21453)
- Sequence (P21453 whole entry): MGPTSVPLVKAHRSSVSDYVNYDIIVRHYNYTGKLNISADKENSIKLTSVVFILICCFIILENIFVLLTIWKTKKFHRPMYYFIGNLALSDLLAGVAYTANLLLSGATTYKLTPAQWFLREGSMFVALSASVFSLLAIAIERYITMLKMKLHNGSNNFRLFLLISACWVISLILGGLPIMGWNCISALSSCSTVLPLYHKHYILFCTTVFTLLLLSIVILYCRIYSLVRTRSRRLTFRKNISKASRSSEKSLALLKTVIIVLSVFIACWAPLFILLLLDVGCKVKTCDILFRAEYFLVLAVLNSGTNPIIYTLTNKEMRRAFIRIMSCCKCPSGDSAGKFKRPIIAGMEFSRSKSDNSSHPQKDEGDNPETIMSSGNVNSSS
- protocol details: Agonist activity at human S1P1 receptor assessed as cAMP accumulation by HTRF assay relative to S1P
- Format: functional
recorded endpoint: Emax (%)

*Q* What Emax value was documented for this compound, O=C(O)CC1CCn2c1cc1cc(OCc3ccc(C4CCCC4)c(C(F)(F)F)c3)ccc12 (stereo in doubt; 12b) ?
*A* 100

*Q* Consider the compound CC(C)Oc1ccc(COc2ccc3c(c2)cc2n3CCC2CC(=O)O)cc1C(F)(F)F (racemic) and give its measured Emax.
*A* 112

*Q* Given `CC(C)Oc1ccc(COc2ccc3c(c2)c(Cl)c2n3CC[C@@H]2CC(=O)O)cc1C(F)(F)F` , state its recorded Emax.
*A* 99

*Q* Value lookup for Emax; key = O=C(O)CC1CCn2c1cc1cc(OCc3ccc(C4CCCC4)c(C(F)(F)F)c3)ccc12 (racemic)
*A* 108
